# TEST TARGET: SARS-CoV-2 3CLpro (Severe acute respiratory syndrome coronavirus 2, UniProt P0DTD1)
# TEST NAME: biochemical
# Format: biochemical
# CONDITION SET: 4 h, sheet LOPAC_screen_w_protease; primary screen with protease, 5 µM; replicate 1; read-out: Replicate_1
Structures can show the parent of a compound that is named as a salt.
# inhibition at 5 µM annotations
MEASUREMENT TYPE: inhibition at 5 µM (%)

COMPOUND | MEASUREMENT TYPE | OBSERVED VALUE
CN(C)C(=O)Oc1ccc[n+](C)c1 [Pyridostigmine bromide] | inhibition at 5 µM | 1.4
CCNC(=O)N1CCN(CCCC(c2ccc(F)cc2)c2ccc(F)cc2)CC1 [Amperozide hydrochloride] | inhibition at 5 µM | 0.58
Cc1ccc(N(CC2=NCCN2)c2cccc(O)c2)cc1 [Phentolamine mesylate] | inhibition at 5 µM | -0.162
CCCN1C[C@H](CSC)C[C@@H]2c3cccc4[nH]cc(c34)C[C@H]21 [Pergolide methanesulfonate] | inhibition at 5 µM | 0.0285
CC(C)C(=O)Nc1ccc([N+](=O)[O-])c(C(F)(F)F)c1 [Flutamide] | inhibition at 5 µM | 2.71
Cc1scc2c1N(C(=O)CN1CCN(C)CC1)c1ccccc1NC2=O [Telenzepine dihydrochloride] | inhibition at 5 µM | -0.915
Nc1nc(N)c2nc(-c3ccccc3)c(N)nc2n1 | inhibition at 5 µM | 2.19
CC(NCCc1ccc(O)cc1)C(O)c1ccc(O)cc1 (centres unmarked) [Ritodrine hydrochloride] | inhibition at 5 µM | -0.659
CC(=O)O[C@]1(C(C)=O)CC[C@H]2[C@@H]3C=C(Cl)C4=CC(=O)[C@@H]5C[C@@H]5[C@]4(C)[C@H]3CC[C@@]21C [Cyproterone acetate] | inhibition at 5 µM | 1.58
CN1CCN(CCCN2c3ccccc3Sc3ccc(C(F)(F)F)cc32)CC1 [Trifluoperazine dihydrochloride] | inhibition at 5 µM | 0.0814
O=C(O)[C@@H]1CCN1 | inhibition at 5 µM | -0.0704
CN1CCN(C2=Nc3ccccc3Oc3ccc(Cl)cc32)CC1 [Loxapine succinate] | inhibition at 5 µM | -0.577
CC(C)[N+](C)(CCOC(=O)C1c2ccccc2Oc2ccccc21)C(C)C [Propantheline bromide] | inhibition at 5 µM | 0.838
COC(=O)[C@@H]1[C@H]2C[C@H]3c4[nH]c5ccccc5c4CCN3C[C@@H]2CC[C@@H]1O [Yohimbine hydrochloride] | inhibition at 5 µM | -0.997
CCCCNc1c(C(=O)OCC)c(C)nc2c1cnn2CC [Tracazolate] | inhibition at 5 µM | 0.109
Nc1ccc(S(=O)(=O)Nc2ccnn2-c2ccccc2)cc1 | inhibition at 5 µM | 0.159
CCCNC(C)C(=O)Nc1ccccc1C (centres unmarked) [Prilocaine hydrochloride] | inhibition at 5 µM | 0.518

* * *

# TEST TARGET: SARS-CoV-2 3CLpro (Severe acute respiratory syndrome coronavirus 2)
# TEST NAME: biochemical
# Format: biochemical
# Set-up: unit not given here
# CONDITION SET: sheet LOPAC_screen_w_protease; LOPAC1280 primary screen at 5 µM, with protease; mean of the two replicates
Assign labels as follows, please: criterion met for mean below 0.6; criterion not met for mean equal to or exceeding 0.6.

COMPOUND | CLASS ASSIGNMENT
CCCN1CCO[C@@H]2c3cc(O)ccc3OC[C@H]21.Cl [S(+)-PD 128,907 hydrochloride] | criterion met
CCS(=O)(=O)Nc1cccc(C(=C2CCCCC2)c2c[nH]cn2)c1 [A-315456] | criterion not met
N[C@@H](Cn1oc(=O)[nH]c1=O)C(=O)O [(+)-Quisqualic acid] | criterion met
C[N+](C)(CCCCCC[N+](C)(C)CCCN1C(=O)c2cccc3cccc(c23)C1=O)CCCN1C(=O)c2cccc3cccc(c23)C1=O.[Br-].[Br-] [WB 64] | criterion not met
Br.Br.N=C(N)SCCc1ccc(CCSC(=N)N)cc1 [1,4-PBIT dihydrobromide] | criterion not met
Cl.O=C(O)Cc1c[nH]cn1 [Imidazole-4-acetic acid hydrochloride] | criterion not met
CC(=O)[C@H]1CC[C@H]2[C@@H]3CC[C@H]4C[C@H](O)CC[C@]4(C)[C@H]3CC[C@]12C [5alpha-Pregnan-3alpha-ol-20-one] | criterion not met
CN1C2CCC1CC(OC(=O)c1c[nH]c3ccccc13)C2.Cl (centres unmarked) | criterion met
Cl.NCCc1ccc(O)cc1 [4-Hydroxyphenethylamine hydrochloride] | criterion not met
CCN(CC)C(=O)N[C@H]1C[C@@H]2c3cccc4[nH]cc(c34)C[C@H]2N(C)C1 [R(+)-Terguride] | criterion met

* * *

# TEST TARGET: SARS-CoV-2 3CLpro (Severe acute respiratory syndrome coronavirus 2)
# TEST NAME: biochemical
# Format: biochemical
# Parameters: unit not given here
# CONDITION SET: sheet LOPAC_screen_w_protease; primary screen with protease, replicate 2
Each record gets a class by Replicate_2: range A = under 1, range B = from 1 up to 3, range C = 3 and over

COMPOUND | TEST TARGET | CLASS ASSIGNMENT
CC(=O)[C@H]1CC[C@H]2[C@@H]3CC[C@H]4C[C@H](O)CC[C@]4(C)[C@H]3C(=O)C[C@]12C [5alpha-Pregnan-3alpha-ol-11,20-dione] | SARS-CoV-2 3CLpro (Severe acute respiratory syndrome coronavirus 2) | range C
O=[N+]([O-])c1cc(O)c(O)c([N+](=O)[O-])c1 [3,5-Dinitrocatechol] | SARS-CoV-2 3CLpro (Severe acute respiratory syndrome coronavirus 2) | range B
Cl.O=C(OC1CCN(CCCl)CC1)C(c1ccccc1)c1ccccc1 | SARS-CoV-2 3CLpro (Severe acute respiratory syndrome coronavirus 2) | range B
CC(/C=C/c1cccc(Oc2ccc(F)cc2)c1)N(O)C(N)=O (stereo not drawn) [BWB70C] | SARS-CoV-2 3CLpro (Severe acute respiratory syndrome coronavirus 2) | range B
C#CC(N)CCC(=O)O (stereo not drawn) [gamma-Acetylinic GABA] | SARS-CoV-2 3CLpro (Severe acute respiratory syndrome coronavirus 2) | range B
Cl.Nc1ccn([C@@H]2O[C@H](CO)[C@@H](O)[C@@H]2O)c(=O)n1 | SARS-CoV-2 3CLpro (Severe acute respiratory syndrome coronavirus 2) | range B
Nc1ccc(N2C(=O)c3ccccc3C2=O)c(Cl)c1 [N-(4-Amino-2-chlorophenyl)phthalimide] | SARS-CoV-2 3CLpro (Severe acute respiratory syndrome coronavirus 2) | range B
CCC1(c2ccc(N)cc2)CCC(=O)NC1=O (racemic) [(±)-p-Aminoglutethimide] | SARS-CoV-2 3CLpro (Severe acute respiratory syndrome coronavirus 2) | range C
Br.Cc1o[nH]c(=O)c1CC(N)C(=O)O (racemic) [(±)-AMPA hydrobromide] | SARS-CoV-2 3CLpro (Severe acute respiratory syndrome coronavirus 2) | range A
COc1ccc2c(c1)c(CC(=O)O)c(C)n2Cc1ccc(F)cc1 | SARS-CoV-2 3CLpro (Severe acute respiratory syndrome coronavirus 2) | range B
CC1=C(/C=C/C(C)=C/C=C/C(C)=C/C(=O)Nc2ccc(O)cc2)C(C)(C)CCC1 [Retinoic acid p-hydroxyanilide] | SARS-CoV-2 3CLpro (Severe acute respiratory syndrome coronavirus 2) | range B
Clc1cnc(Oc2ccc(Oc3ncc(Cl)cc3Cl)cc2)c(Cl)c1 [TCPOBOP] | SARS-CoV-2 3CLpro (Severe acute respiratory syndrome coronavirus 2) | range A

* * *

# TEST TARGET: SARS-CoV-2 3CLpro (Severe acute respiratory syndrome coronavirus 2)
# TEST NAME: biochemical
# Format: biochemical
# Parameters: unit not given here
# CONDITION SET: sheet LOPAC_screen_w_protease; primary screen of LOPAC1280 at 5 µM with protease; replicate 2

MOLECULE | Replicate_2
C/C(=C\c1ccc(C(=O)O)cc1)c1ccc2c(c1)C(C)(C)CCC2(C)C [TTNPB] | 1.7694
CCCCN1CCC(n2c(=O)[nH]c3ccccc32)CC1.O=C(O)C(=O)O [NS 521 oxalate] | 4.361
Br.CCCN1CC[C@@H]2c3cc(O)ccc3CC[C@@H]21 (racemic) [cis-(±)-8-OH-PBZI hydrobromide] | 3.784
Cl.NCC(O)c1ccc(O)cc1 (racemic) [(±)-Octopamine hydrochloride] | 3.21

* * *

# TEST TARGET: SARS-CoV-2 3CLpro (Severe acute respiratory syndrome coronavirus 2)
# TEST NAME: biochemical
# Assay type: biochemical
# CONDITION SET: 4 h, sheet LOPAC_screen_w_protease; primary screen of LOPAC1280 at 5 µM with protease; mean of the two replicates; read-out: mean
Where a name gives a salt, the structure may show the parent alone.
MEASUREMENT TYPE: inhibition at 5 µM (%)

COMPOUND | OBSERVED VALUE
O=C(C1CCCCC1)N1CC(=O)N2CCc3ccccc3C2C1 (centres unmarked) [Praziquantel] | 3.73
Clc1ccc2c(c1)C(N1CCNCC1)=Nc1ccccc1O2 [Amoxapine] | 3.27
Cc1ncc(CNC(=O)N(CCCl)N=O)c(N)n1 [Nimustine hydrochloride] | 3.43
CC1=NS(=O)(=O)c2cc(Cl)ccc2N1 [Diazoxide] | 3.37
CC(=O)OCC1=C(C(=O)O)N2C(=O)[C@@H](NC(=O)CSc3ccncc3)[C@H]2SC1 [Cephapirin sodium] | 4.07
Cn1cnc2c1c(=O)[nH]c(=O)n2C [Theobromine] | 3.53
c1ccc2cc(-c3ncc[nH]3)ccc2c1 [Benazoline oxalate] | 3.39
CN[C@H](CC(=O)O)C(=O)O [N-Methyl-D-aspartic acid] | 3.42
N=C(NCCC[C@H](N)C(=O)O)N[N+](=O)[O-] [NG-Nitro-L-arginine] | 3.68
CC(CCc1ccccc1)NC(C)C(O)c1ccc(O)cc1 (centres unmarked) [Nylidrin hydrochloride] | 3.76
CC(=O)Oc1cc(C(C)C)c(OCCN(C)C)cc1C [Moxisylyte hydrochloride] | 3.55
